All values here come from the DeepSol protein solubility set.

experiment: soluble on expression in E. coli; label from the status in PepcDB or PDB records

{"seq": "MAHHHHHHMKFTISTSIEDVLFKGGFRVKEMRLNDFLTVIFGGRSILRANRSVLLRDFFSDPTRYIHDAGVLNEIQATGAYARMEEAVRDEIIFEEDRSKLRDKGVINLLGWSEAAANVKTTVHNNNKNSLDAALEEARNPTTTSTPIYLEGCYESVYNAKWHHLVEVPGGEGTGMDVEEGEPPQS", "soluble on expression in E. coli": "not soluble"}
{"seq": "SLQAINPNWNVPKNIHAFTTTREGGVSLAPYLSFNLGDHVGDNKSAVKTNRTLLVEKFGLPQTPIFLTQTHSTRVIQLPYSGQNLEADAVYTNVPNQVCVVMTADCLPVLFTTTSGNEVAATHAGWRGLCDGVLEETVKYFQAKPEDIIAWFGPAIGPKAFQVGIDVVEKFVVVDEKAKLAFQPDAIEEGKYLSNLYQIATQRLNNLGITQIYGGNHCTFNEKEKFFSYRRDNQTGRMASVIWFE", "soluble on expression in E. coli": "soluble"}
{"seq": "MIRILLSNDDGISAPGIQTLASALRGFAQVQIVAPDRNRSGASNALTLDSALRITTLSNGDIAVQQGTPTDCVYLGVNALMRPRPDIVVSGINAGPNLGDDVIYSGTVAAAMEGRHLGYPALAVSLNGHQHYDTAAAVTCRLLRALQRKPLRTGKILNINVPDLPLAEIKGIRVTRCGSRHPAEQVFCQQDPRGQDLYWIGPPGEKYDAGPDTDFAAVEQGYVSITPLQVDLTAYMAQEVVESWLANTEVDGEW", "soluble on expression in E. coli": "not soluble"}
{"seq": "MNNGYSPTSSNQQNVSVEHDIIMRGRRIIDITGVKQVESFDSEEFLLETVMGFLTIRGQNLQMKNLDVEKGIVSIKGKVNEMLYIDENQGEKTKGFFSKLFKLEHHHHHH", "soluble on expression in E. coli": "not soluble"}
{"seq": "MSLKEVIFVLLNEFADWEGAFIAACLNQGVMPGSPVPYKVKTLSITKEPVSSIGGFRVLPDYDLKDMPEDYAGLILIGGMSWFSPEAELIAPLIEKAIKDKKVVGGICNASVFLAMHGFLNNVKHTSNTIDYLKQHVGERYTGDSNYVDQQAVRDGKIITANGTGQLEFCREILYALEADTAEAIEKSYLFYKNGEGHHHHHH", "soluble on expression in E. coli": "soluble"}
{"seq": "MGSDKIHHHHHHMKNLYAKVIVGGSPISKSNFKLSNINGRAILPYNSGQYHDRYAIYEETIAYEARSQNPNTVISESIIAVLKVFYKSKKRHPDTNNITKSIFDGIEKSGIIVNDAQITRIIIEEYYDMINPRFELELFAESKFKMKYSILKKEEEDEPILYDPPSNKKRLITKTQKPKKSAQNGTITCSICGKKVTNDNIIWANKGTTALCKNCLKKSF", "soluble on expression in E. coli": "not soluble"}
{"seq": "MKRRKQSRRWRGKKYAPVMIGMLVLLMNLADLKISNLISGSIICQAAERQSENTETENNSGGTEKEKITQTEASTVSDILEELDLSRVQRMLDQMLGEESFSMKDMLDGLIKGEKVLSEDTVQEMVHSFLFSGLEKEKS", "soluble on expression in E. coli": "not soluble"}
{"seq": "RPVWYGDPISTSTSHRDLMLVVDLSYSMSQEDMQSGQQMVDRLTAVKQVLSEFIAKREGDRIGLILFADHAYLQTPLTLDRQTVANQLNQTVLKLIGTQTAIGEGIGLATKTFIDSDAPQRVMILLSDGSNTAGVLDPLEAANIAKQYNTTIYTVGVGAGEMVVKDFLFSRKVNTAQDLDEKTLQTIATTTGGHYFRARNQQDLQNIYDTINQLEPISQSN", "soluble on expression in E. coli": "not soluble"}

###

assay: soluble on expression in E. coli; label from the status in PepcDB or PDB records
readout-type: soluble on expression in E. coli

{"seq": "MGSDKIHHHHHHMTVAQLLIPQMYSSKSTGEAVGRHPLNFYESPSWFTTELLRHVRLSGVVGEPCVGMGAIASLLSVWPYTKQMWTNDIDPHKSANYQMDATLSESWAKFPDCDWICTNPPYSEFAAPIIKNAYCKAHVGVAAFLLTSFLEPCDDRADFLQQHPPSLVLIMPRFCFRKDKRGTRWATDNVTISCFVWDKRATGQQIIVRPKSAIAGFYKNPEQAISQERAEKIVRAIAKGEL", "recorded-measurement": "not soluble"}
{"seq": "GMNNIIVGMGEALWDVLPEGKKIGGAPANFAYHVSQFGFDSRVVSAVGNDELGDEIMEVFKEKQLKNQIERVDYPTGTVQVTLDDEGVPCYEIKEGVAWDNIPFTDELKRLALNTRAVCFGSLAQRNEVSRATINRFLDTMPDIDGQLKIFDINLRQDFYTKEVLRESFKRCNILKINDEELVTISRMFGYPGIDLQDKCWILLAKYNLKMLILTCGINGSYVFTPGVVSFQETPKVPVADTVGAGDSFTAAFCASILNGKSVPEAHKLAVEVSAYVCTQSGAMPELPVILKDRLL", "recorded-measurement": "soluble"}
{"seq": "MSLSTARIMLVDDHPIVREGYRRLIERRPGYAVVAEAADAGEAYRLYRETTPDIVVMDLTLPGPGGIEATRHIRQWDGAARILIFTMHQGSAFALKAFEAGASGYVTKSSDPAELVQAIEAILAGRRAMSPDIAQEIAEERVEGRATAIADLSPRETEILRMLASGMTSDEIAAGLCLSVKTVQNNHYQIKAKLGARTDAHLVWVAIEAGLVREGHHHHHH", "recorded-measurement": "soluble"}
{"seq": "MSLAIVAKRTIMSLFSDVDDVYSHQVRIVLAEKGVNVEILAVKQDEPGADLLSINPYGTVPTLIDRELVLYEARIIMEYLDERFPHPPLLPVYPVARAEARKMMHRIEQDWYYLMNAILREESVEQARANLLESLTSLDPVFADKPYFLSDEFSLLDCALAPLLWRLPKLGLEIAPNFKGIISYMQRVFKRDSFQTSLTDAERQIRAAEGHHHHHH", "recorded-measurement": "soluble"}
{"seq": "MGSDKIHHHHHHMRNTDTYSYLVRDGHDLVHDPVPGILGPRPIGWISTCDSSGRPRLQTYSFFGIFNYVPPIVGFASVGGTESVNNAELTGEFAYNLATRPLAGCVNQTIVPALTEMDEFERSGLTKIRSIAIAAPRVAESPVSLECRVTSIQQLNGLDSEALNTWLVLGEVVAVHINRELLCDGFYDTVAAQPILRGGGACDYFEVLQAGKFRMTHPR", "recorded-measurement": "not soluble"}
{"seq": "MPVSPEREQALSEFVAAVQAREDVQSELNEITTLDQLKTIVDSIEPALTGAALIPFEQATSPPKITVDSGVLDKNIPWRLLRCPGGPLVLQMICTRVNFALWIESC", "recorded-measurement": "not soluble"}
{"seq": "MIDTPDLETRAAPEDHHALRLWLRMLTCCNLIESEIRSRLRTEFDTTLPRFDLMAQLQRAPKGMKMGELSRHMMVTNGNITGITDQLEKEGLVVRTKVESDRRSSVLKLTPQGKRTFARMARAHESWVTGMLDDLPEASRHAMYKALGELKLQVVAHRALAQRDGAS", "recorded-measurement": "not soluble"}

###

assay: soluble on expression in E. coli; label from the status in PepcDB or PDB records

{"seq": "MRYQKLEIQEANWQWKYLLKKHREGENITKHTEQSLIELKVQFLTTLQHSPAEIEQWIKAEMTAEQRKRMRQSIRAKRKRFFNAEKLTTKKKSIDLDYASWLRLSKYSKTHAMTLSETINHLIDERENQHLYSEQMAKMKASLKDLLK", "soluble on expression in E. coli": "not soluble"}
{"seq": "YIGSGASQPNRTDVVWMVPSWTCKNEYSIDVEKYGILQNEDQHFVGGKQFAIFYEHSFGKIPYFKAQNESDPKNGGLPQMGDLEAHLIQAEKDINETIPDENFNGIAVIDIEEFRPMWELSWGPFSVYKTESIRLTRQQHPYWSTKQIEWQAERDYEKACQKFFIETLRLGKRLRPNAKWGYYLFPKCNGDVGQKSDTDCSTLFQKFNDNLHWLWGESTALFPSIYLYPSQKQNPEYNFVNSGALITETKRIKRNYCPSCEIHVFTKIEYNPYYTPDDFYSKQNLASTLDLAIKMNANSVVIWSTSQSIGSRCGSLQTYVDNTLGPYLQLTDRNLD", "soluble on expression in E. coli": "not soluble"}

###

test: soluble on expression in E. coli; label from the status in PepcDB or PDB records
readout-type: soluble on expression in E. coli

{"seq": "MGSDKIHHHHHHMSDIKFNSMTHFEAVARLGGVAKAAQELQVTPSAVSQQLRLLEHQLGVRLFQREKRHLSLTIDGERLFQTTTQAFESIREVRNAIVRQRESFQLSLRVSPSFGEKWLAPRLAEFSKDYPSWNLRVDATPNFSDFETEVIDLDLRYGDGGWAGLYSDCVVNDLILPMCSPSYLAELRGLSVDPREQLGHARLIDSVKAYFRWDYWLPRNGIQGARMTYPYRFDRSSMSVQLAKDGAGVVLESTTIAFEDLVSGSLVPVSTEFDVIEFPGYWLVCPSRHMNRRAVRLFSDWVSRVGQRDTDRARQFLSESGLHISFERRPHFGTPDDRAATML", "recorded-measurement": "not soluble"}
{"seq": "MGINERLRHVIEAQKMTIKGFAETVDIPLRSVHNYLSGEREPSADALTKISNKLNINLNWLLLDQGEMYLNQSSDLTLNADEMNLLTQYRQTHDSGKRILQATSKIILDELK", "recorded-measurement": "not soluble"}
